# protocolDetails: Antagonist activity at P2Y12 receptor in human platelet rich plasma assessed as inhibition of ADP-induced platelet aggregation by light transmission aggregometry
parameter: IC50 (nM)

CCCCOC(=O)N1CCN(C(=O)[C@H](CCC(=O)O)NC(=O)c2cc(OCC3CCNCC3)nc(-c3ccccc3)n2)CC1 ... 1200
CCCCCOC(=O)N1CCN(C(=O)[C@H](CCC(=O)O)NC(=O)c2cc(N3CCN(CC(=O)N(C)C)CC3)nc(-c3ccccc3)n2)CC1 ... 530
CCCCCOC(=O)N1CCN(C(=O)[C@H](CCC(=O)O)NC(=O)c2cc(N3CCC(CCN(C)C)CC3)nc(-c3ccccc3)n2)CC1 ... 400

I: CCCCOC(=O)N1CCN(C(=O)[C@H](CCC(=O)O)NC(=O)c2cc(OC3CCN(C(C)C)CC3)nc(-c3ccccc3)n2)CC1
II: CCCCCOC(=O)N1CCN(C(=O)[C@H](CCC(=O)O)NC(=O)c2cc(N3CCC(CC(=O)N4CCC4)CC3)nc(-c3ccccc3)n2)CC1
Thinking about recorded IC50 values, which is higher, I or II ? // caller expects the label of the chosen entry I

---

# protocolDetails: Antagonist activity at P2Y12 receptor in human platelet rich plasma assessed as inhibition of ADP-induced platelet aggregation by light transmission aggregometry
parameter: IC50 (µM)

Record excerpt, results attached:
CCCCOC(=O)N1CCN(C(=O)[C@H](CCC(=O)O)NC(=O)c2cc(OCCN(CC)CC)nc(-c3ccccc3)n2)CC1 ... 3
CCCCOC(=O)N1CCN(C(=O)[C@H](CCC(=O)O)NC(=O)c2cc(N3CCC(CCOC)CC3)nc(-c3ccccc3)n2)CC1 ... 1.2

P: CCCCCOC(=O)N1CCN(C(=O)[C@H](CCC(=O)O)NC(=O)c2cc(N3CCN(CCOC)CC3)nc(-c3ccccc3)n2)CC1
Q: CCCCCOC(=O)N1CCN(C(=O)[C@H](CCC(=O)O)NC(=O)c2nc(-c3ccccc3)cc(N3CCN(C)CC3)n2)CC1
Please choose the item with the lower IC50 value from this pair: P and Q // caller expects the label of the chosen entry P
(P: 2.2 µM, Q: 8.1 µM)

P: CCCCCOC(=O)N1CCN(C(=O)[C@H](CCC(=O)O)NC(=O)c2cc(N3CCNCC3)nc(-c3ccccc3)n2)CC1
Q: CCCCOC(=O)N1CCN(C(=O)[C@H](CCC(=O)O)NC(=O)c2cc(N3CCC(N4CCCC4)CC3)nc(-c3ccccc3)n2)CC1
Please choose the item with the lower IC50 value from this pair: P and Q // caller expects the label of the chosen entry Q
(Q: 0.66 µM, P: 1.3 µM)

---

# protocolDetails: Antagonist activity at P2Y12 receptor in human platelet rich plasma assessed as inhibition of ADP-induced platelet aggregation by light transmission aggregometry
pIC50: −log10 of the molar value.
parameter: pIC50

CCCCOC(=O)N1CCN(C(=O)[C@H](CCC(=O)O)NC(=O)c2cc(N3CCC(C(=O)N(C)C)CC3)nc(-c3ccccc3)n2)CC1 ... 5.82

P: CCCCOC(=O)N1CCN(C(=O)[C@H](CCC(=O)O)NC(=O)c2cc(OC3CCNCC3)nc(-c3ccccc3)n2)CC1
Q: CCCCCOC(=O)N1CCN(C(=O)[C@H](CCC(=O)O)NC(=O)c2cc(NCC3CCNC3)nc(-c3ccccc3)n2)CC1 (stereo partly specified)
R: CCCCCOC(=O)N1CCN(C(=O)[C@H](CCC(=O)O)NC(=O)c2cc(N3CCOCC3)nc(-c3ccccc3)n2)CC1
S: CCCCCOC(=O)N1CCN(C(=O)[C@H](CCC(=O)O)NC(=O)c2cc(N3CCC(CNCC)CC3)nc(-c3ccccc3)n2)CC1
# rank_down: sort by pIC50, max first Please respond by ranking the labels in the order requested. S, P, Q, R
(S: 6.11, P: 5.89, Q: 5.59, R: 5.20)

I: CCCCCOC(=O)N1CCN(C(=O)[C@H](CCC(=O)O)NC(=O)c2cc(N3CC(O)C3)nc(-c3ccccc3)n2)CC1
II: CCCCCOC(=O)N1CCN(C(=O)[C@H](CCC(=O)O)NC(=O)c2cc(N3CCC(OCCO)CC3)nc(-c3ccccc3)n2)CC1
III: CCCCCOC(=O)N1CCN(C(=O)[C@H](CCC(=O)O)NC(=O)c2nc(-c3ccccc3)cc(N3CCN(C(C)=O)CC3)n2)CC1
IV: CCCCOC(=O)N1CCN(C(=O)[C@H](CCC(=O)O)NC(=O)c2cc(N3CCC(C(=O)N4CCCC4)CC3)nc(-c3ccccc3)n2)CC1
Could you please order the items by pIC50, going from the lowest number to the highest? Please respond by ranking the labels in the order requested. III, I, II, IV

A: CCCCOC(=O)N1CCN(C(=O)[C@H](CCC(=O)O)NC(=O)c2cc(N3CCC(OC)CC3)nc(-c3ccccc3)n2)CC1
B: CCCCCOC(=O)N1CCN(C(=O)[C@H](CCC(=O)O)NC(=O)c2cc(N3CCC(C(=O)N4CCCC4)CC3)nc(-c3ccccc3)n2)CC1
C: CCCCCOC(=O)N1CCN(C(=O)[C@H](CCC(=O)O)NC(=O)c2cc(N3CCC(CNC)CC3)nc(-c3ccccc3)n2)CC1
Could you please order the items by pIC50, going from the lowest number to the highest? Please respond by ranking the labels in the order requested. A, C, B
(A: 5.74, C: 6.13, B: 6.57)

A: CCCCCOC(=O)N1CCN(C(=O)[C@H](CCC(=O)O)NC(=O)c2cc(NCCCN(C)C)nc(-c3ccccc3)n2)CC1
B: CCCCCOC(=O)N1CCN(C(=O)[C@H](CCC(=O)O)NC(=O)c2cc(N3CCC(OCCOC)CC3)nc(-c3ccccc3)n2)CC1
Thinking about recorded pIC50 values, which is higher, A or B ? // caller expects the label of the chosen entry B
(B: 5.85, A: 5.59)

---

# protocolDetails: Antagonist activity at P2Y12 receptor in human platelet rich plasma assessed as inhibition of ADP-induced platelet aggregation by light transmission aggregometry
pIC50: −log10 of the molar value.
parameter: pIC50

Record excerpt, results attached:
CCCCOC(=O)N1CCN(C(=O)[C@H](CCC(=O)O)NC(=O)c2cc(N3CCC(N4CCOCC4)CC3)nc(-c3ccccc3)n2)CC1 ... 6.06
CCCCCOC(=O)N1CCN(C(=O)[C@H](CCC(=O)O)NC(=O)c2nc(-c3ccccc3)cc(N3CCC(C(=O)N(CC)CC)CC3)n2)CC1 ... 5.89

I: CCCCCOC(=O)N1CCN(C(=O)[C@H](CCC(=O)O)NC(=O)c2cc(N3CCC(N)CC3)nc(-c3ccccc3)n2)CC1
II: CCCCCOC(=O)N1CCN(C(=O)[C@H](CCC(=O)O)NC(=O)c2nc(-c3ccccc3)cc(N3CCC(CCN)CC3)n2)CC1
Please choose the item with the lower pIC50 value from this pair: I and II // caller expects the label of the chosen entry II
(II: 5.85, I: 6.14)
